# Tested on: SNB-19
# EXPERIMENTAL_PROTOCOL: NCI tumour cell line growth inhibition, 48 h
Activity calls are given as the source filed them. Cut-off read from the data, not from the text of the source: active = GI50 up to about 1.1 µM and inactive = higher. Square brackets hold non-standard residues; d marks the D form. Peptide text beside a SMILES is read from it. * marks the point of attachment. Tyr(3-Br) = N[C@@H](Cc1ccc(O)c(Br)c1)C(=O)O; Boc = CC(C)(C)OC(=O)*
# maps each entry to its GI50

Here's what some known entries look like.
| COMPOUND | GI50 |
| --- | --- |
| COC([C@@H](OC(=O)c1ccccc1)[C@H](OC(=O)c1ccccc1)C(O)COC(=O)c1ccccc1)n1cc(C)c(=O)[nH]c1=O (stereo partly drawn) | 22.2 µM (inactive) |
| Cc1ccc(Oc2cc(C)ccc2P(=O)(O)O)cc1 | > 100 µM (inactive) |
| C[C@H](CCC(=O)O)[C@H]1CC[C@H]2[C@@H]3[C@H](O)[C@H](O)[C@@H]4C[C@H](O)CC[C@]4(C)[C@H]3CC[C@]12C | > 100 µM (inactive) |
| CCOC(=O)C1=C(Nc2ccc(NC3=C(C(=O)OCC)C(=O)CS3)cc2)SCC1=O | 32.2 µM (inactive) |
| NCC(=O)OCN1C(=O)C2C3C=CC(C2C1=O)C1C2C(=O)N(COC(=O)CN)C(=O)C2C31 (stereo not drawn) | 48.8 µM (inactive) |
| COc1nc2ccc(COc3ccc(C(=O)O)cc3)cc2nc1OC | > 100 µM (inactive) |
| COc1c2ccoc2c(OC)c2oc(=O)ccc12 | > 100 µM (inactive) |
| CCOC(=O)C(NNS(=O)(=O)c1ccc(C)cc1)S(=O)(=O)C(F)(F)C(F)(F)C(F)(F)C(F)(F)F (stereo not drawn) | > 100 µM (inactive) |

The recorded GI50 for Cc1ccc(S(=O)(=O)N/N=C\c2c3ccccc3[n+]([O-])c3ccccc23)cc1 is 11.9 µM (inactive)

The recorded GI50 for CCOC(=O)C(C)NC(=O)C(C)NC(=O)C(C)NC(=O)C(C)NC(=O)C(C)NC(=O)OCc1ccccc1 (stereo not drawn) is > 100 µM (inactive)

The recorded GI50 for NC(=S)NS(=O)(=O)c1ccc(F)cc1 is > 100 µM (inactive)

The recorded GI50 for COCCOCCOCCC(=O)NC1CC2CCC1(C)C2(C)C (stereo not drawn) is > 100 µM (inactive)

The recorded GI50 for COC(=O)[C@H](Cc1ccc(O)c(Br)c1)NC(=O)[C@H](Cc1ccc(O)cc1)NC(=O)OC(C)(C)C (Boc-Tyr-[Tyr(3-Br)]-OMe) is > 100 µM (inactive)

The recorded GI50 for CN(C)c1ccc(O[Si](Oc2ccc(N(C)C)cc2)(Oc2ccc(N(C)C)cc2)Oc2ccc(N(C)C)cc2)cc1 is > 100 µM (inactive)

The recorded GI50 for O=C(CO)CC(=O)C(=O)Nc1nc([N+](=O)[O-])cs1 is > 100 µM (inactive)

The recorded GI50 for CC(Oc1ccc(Oc2cnc3ccc(Cl)cc3n2)cc1)C(=O)O (stereo not drawn) is > 62.1 µM (inactive)

* * *

# System: OVCAR-4
# EXPERIMENTAL_PROTOCOL: NCI tumour cell line growth inhibition, 48 h
Activity calls are given as the source filed them. No stated cut-off is given here; in the data, active = GI50 up to about 1.1 µM and inactive = higher.
OUTCOME_MEASURE: GI50

| COMPOUND | OBSERVED |
| --- | --- |
| CN(C)CCC1(C2=CCCC2)CC/C(=C\c2ccc3c(c2)OCO3)C1=O (stereo not drawn) | 13.5 µM (inactive) |

The recorded GI50 for OCN(CO)c1ccc2c(c1)Cc1cc(F)ccc1-2 is 17.8 µM (inactive)

The recorded GI50 for O=C(/C=C/c1ccccc1Cl)NC1C=Nc2ccc([N+](=O)[O-])cc2NC1 (stereo not drawn) is 78.3 µM (inactive)

* * *

# System: M14
# EXPERIMENTAL_PROTOCOL: NCI tumour cell line growth inhibition, 48 h
The source made the active and inactive calls. No stated cut-off is given here; in the data, active = GI50 up to about 1.1 µM and inactive = higher.
# maps each entry to its GI50

Here's what some known entries look like.
| COMPOUND | EXPERIMENTAL_SYSTEM | GI50 |
| --- | --- | --- |
| CCn1c(-c2ccc(/N=N/Nc3ccc(-c4n[nH]c(=S)n4CC)cc3)cc2)n[nH]c1=S | M14 | 2.65 µM (inactive) |
| CC(C)NC1(C(N)=O)CCN(Cc2ccccc2)CC1 | M14 | > 100 µM (inactive) |
| Cn1c(-c2ccccc2)c/c(=N\NS(C)(=O)=O)c2cc(S(=O)(=O)O)ccc21 | M14 | > 100 µM (inactive) |
| CCOC(=O)C1=C(Nc2ccc(NC3=C(C(=O)OCC)C(=O)CS3)cc2)SCC1=O | M14 | 20.4 µM (inactive) |
| CC(=O)[C@]1(O)Cc2c(O)c3c(c(O)c2[C@@H](OC2CC(N)C(O)C(C)O2)C1)C(=O)c1c(OCc2ccccc2)cccc1C3=O (stereo partly drawn) | M14 | 1.49 µM (inactive) |

The recorded GI50 for CN(C)c1ccc(/C=C(\NC(=O)c2ccccc2)c2nc3ccc4c(c3[nH]2)C(=O)c2ccccc2C4=O)cc1 is 53.8 µM (inactive)

The recorded GI50 for COc1cccc(C2c3cc4c(cc3OC(N3CCOCC3)C2C)OCO4)c1OC (stereo not drawn) is 9.1 µM (inactive)

The recorded GI50 for Oc1ccccc1CNCc1nc2ccccc2[nH]1 is 86.3 µM (inactive)

* * *

# Test system: SF-295
# EXPERIMENTAL_PROTOCOL: NCI tumour cell line growth inhibition, 48 h
Calls of active or inactive are those of the source. Cut-off read from the data, not from the text of the source: active = GI50 up to about 1.1 µM and inactive = higher.
# maps each entry to its GI50

| MOLECULE | GI50 |
| --- | --- |
| CCCN(CCCC(NC(C)=O)C(=O)NCc1ccccc1)C(=O)NC (centres undefined) | > 100 µM (inactive) |
| CC1(C)CC(=O)C(CC(C(=O)C(=O)Nc2cc(C(F)(F)F)ccc2Cl)C(=O)c2ccco2)C(=O)C1 (centres undefined) | > 100 µM (inactive) |
| O=C(O)[C@@H]1CCCC[C@@H]1C(=O)N(C1CCCCC1)C1CCCCC1 | > 100 µM (inactive) |
| NCC(=O)OCN1C(=O)C2C3C=CC(C2C1=O)C1C2C(=O)N(COC(=O)CN)C(=O)C2C31 (centres undefined) | 53.7 µM (inactive) |
| CC#N.O[C@@H]1CCCC[C@H]1O.O[C@@H]1CCCC[C@H]1O.[TeH2] | 18.6 µM (inactive) |

The recorded GI50 for COc1cccc(C2c3cc4c(cc3OC(N3CCOCC3)C2C)OCO4)c1OC (centres undefined) is 2.84 µM (inactive)

The recorded GI50 for O=c1c2nn[nH]c2nc2n1CC(c1ccccc1)S2 (centres undefined) is > 100 µM (inactive)

The recorded GI50 for CC(=O)OC1CCC2C3CCc4c(C)ccc(OS(=O)(=O)c5ccccc5)c4C3CCC12C (centres undefined) is 25.5 µM (inactive)

The recorded GI50 for CN(C)CCNC(=O)c1cccc2c(NC(CCCNC(=N)N)C(=O)O)c3ccccc3nc12 (centres undefined) is 7.57 µM (inactive)

The recorded GI50 for CC(C)(C)OC(=O)CN1CCNCCN(CC(=O)OC(C)(C)C)CC1 is > 100 µM (inactive)

The recorded GI50 for Cc1ccc(Oc2cc(C)ccc2P(=O)(O)O)cc1 is > 100 µM (inactive)

The recorded GI50 for C=CC[C@@H]1C(=O)[C@@]2(O[Si](C(C)C)(C(C)C)C(C)C)CC[C@@H]1C[C@H]2NC(=O)OCC(Cl)(Cl)Cl is 5.35 µM (inactive)

The recorded GI50 for C=CC1(C)/C(=N\O)C(C)(CC)C(=O)N1O (centres undefined) is > 100 µM (inactive)

The recorded GI50 for COCCOCCOCCC(=O)NC1CC2CCC1(C)C2(C)C (centres undefined) is > 100 µM (inactive)

* * *

# maps each entry to its GI50
# System: SK-OV-3
# EXPERIMENTAL_PROTOCOL: NCI tumour cell line growth inhibition, 48 h
The source made the active and inactive calls. Rule as the data show it: active = GI50 up to about 1.1 µM and inactive = higher.

Here's what some known entries look like.
| COMPOUND | GI50 |
| --- | --- |
| COCOCC/C=C/C=O | > 100 µM (inactive) |
| COC(=O)C1c2cc3c(c(O)c2CCC1(C)O)C(=O)c1c(O)cc2c(c1C3=O)OC1OC2(C)C(O)C(N(C)C)C1O (stereo not given) | 1.91 µM (inactive) |
| NC(=O)C[C@H](NC(=O)C1(NC(=O)[C@H](Cc2ccc(CP(=O)(O)O)cc2)NC(=O)C(=O)O)CCCCC1)C(=O)NCCCc1cccc2ccccc12 | > 10 µM (inactive) |
| CN(C)c1ccc(O[Si](Oc2ccc(N(C)C)cc2)(Oc2ccc(N(C)C)cc2)Oc2ccc(N(C)C)cc2)cc1 | > 100 µM (inactive) |

Summary: C/C(Cc1ccc2c(c1)OCO2)=N\NC(=O)C(C)Sc1nnc(SC(C)C(=O)N/N=C(\C)Cc2ccc3c(c2)OCO3)s1 (stereo not given) , SK-OV-3, GI50 = > 100 µM (inactive)
